tested on: NIH3T3; assay: Cytotoxic Profiling of Annotated Libraries Using Quantitative High-Throughput Screening (AID 1296008); settings: Five cell lines viability, CellTiter-Glo ATP luminescence, 48-72 h; active compounds read low; also: % is scaled to controls: 0 for no effect and ±100 for the full control effect; nearly all actives have a fitted effect of over 60% in size
Inconclusive results are not listed.
Exercise: state measured max response for each of the compounds provided.
Numbers only, in %.

// solved cases for max response follow
- COMPOUND: "CCCCCCOC(=O)/N=C(\\N)c1ccc(NCc2nc3cc(C(=O)N(CCC(=O)OCC)c4ccccn4)ccc3n2C)cc1"
  max response, %: -4.93
- COMPOUND: "CC1=CC2/C=C(\\C)CCC(O)C(=O)C(O)CC(=O)C23C(=O)NC(CC(C)C)C3C1C (configuration not stated)"
  max response, %: -27
- COMPOUND: "CC(C)(C)c1ccc(C(=O)Nc2cc(Cl)c(Br)cc2C(=O)O)cc1"
  max response, %: -19.1
- COMPOUND: "CCOC(=O)N1c2ccc(C(F)(F)F)cc2C(N(Cc2cc(C(F)(F)F)cc(C(F)(F)F)c2)C(=O)OC)CC1CC (configuration not stated)"
  max response, %: 3.11
- COMPOUND: "C=C1C(=O)O[C@@H]2C[C@]3(C)[C@@H](CCC(C)O)[C@@H]3C[C@H]12 (some centres not stated)"
  max response, %: -15.1

Parameter requested: max response. Apply to each item below.
1. O=C(Nc1ccccc1C(=O)NC1CCCCNC1=O)c1cc2ccccc2s1 (configuration not stated)
2. CCOC(=O)c1ccc(OCCC2CCN(c3ccc(C)nn3)CC2)cc1
3. C/C=C\NC(=O)C1NC(=O)C(CC(N)=O)NC(=O)C(NC(=O)C(=O)C(C)CC)Cc2ccc(O)c(c2)-c2cccc3c2NC(=O)C3(O)C1O (configuration not stated)
4. CC(=O)NC(C)c1cnc(-c2cnc(Oc3ccc(OC(C)C)cc3)s2)s1 (configuration not stated)
5. C[C@@H](NC(=O)[C@H](O)c1cc(F)cc(F)c1)C(=O)N[C@@H]1C(=O)N(C)c2ccccc2-c2ccccc21
6. O=C([C@@H]1CCCN(c2ccc3[nH]c(C4(n5cc(Cl)cn5)CC4)nc3n2)C1)N1CCCC1

Completion:
[4.3, -0.794, -19, 0.946, -0.195, -6.68]

Working through the 8 compounds below one at a time, give max response for each.
1. CC(C)[C@@H](c1ccc(C(F)(F)F)cc1CN(Cc1cc(C(F)(F)F)cc(C(F)(F)F)c1)c1nnn(C)n1)N1CCC(C(=O)O)CC1
2. Cc1cc(C)cc(-c2cnc3cc(Cl)c(-c4cccc(O)c4)cc3c2OCCCN)c1
3. C/C(=N\N=C(N)N)c1cc(NC(=O)CCCCCCCCC(=O)Nc2cc(/C(C)=N/N=C(N)N)cc(/C(C)=N/N=C(N)N)c2)cc(/C(C)=N/N=C(N)N)c1
4. CC(=O)O[C@H]1[C@H](O)C[C@@]2(C)C(CC[C@]3(C)C2CC=C2C4CC(C)(C)CC[C@]4(C(=O)O)CC[C@]23C)C1(C)C (some centres not stated)
5. CCN(c1cc(-c2ccc(CN3CCOCC3)cc2)cc(C(=O)NCc2c(C)cc(C)[nH]c2=O)c1C)C1CCOCC1
6. COc1ccc(NC(=O)C2C[C@H](C)CC[C@H]2C(C)C)cc1 (some centres not stated)
7. C=C(C(=O)OC[C@H]1O[C@@H](OC(=O)/C=C/c2ccccc2)[C@H](O)[C@@H](O)[C@@H]1O)C(O)CO (some centres not stated)
8. CC(=O)O[C@@H]1[C@@H](O)[C@H](O[C@@H]2[C@@H](O)[C@@H](O)[C@H](O[C@H]3[C@H](O[C@H]4[C@H](O[C@H]5CC[C@@]6(C)C(CC[C@]7(C)C6CC=C6[C@@H]8CC(C)(C)CC[C@]8(C(=O)O)CC[C@]67C)[C@]5(C)CO)O[C@H](CO)[C@@H](O)[C@@H]4O)OC[C@@H](O)[C@@H]3O)O[C@H]2C)OC[C@H]1O (some centres not stated)

Completion:
4.8
-0.922
0.565
-15.2
-11.7
-6.73
1.83
3.03

Where do these numbers come from? They come from PubChem BioAssay (NCATS).
